Cited source: patent US10626144B2

# Test system: Escherichia coli ATCC 25922
# Assay Remarks: MIC, broth microdilution (CLSI), reference strain
# Run Parameters: CAMHB
Numbered stars: 1 amine (or outer) side, 2 acyl side, 3 side chain; on linkers, the order of the positions; unused ones are H or OH. Square brackets hold non-standard residues; d marks the D form. Peptide text beside a SMILES is read from it. * marks the point of attachment. X3 = NC[C@H](OC(=O)C(F)(F)F)[C@H](N[*:1])C(=O)[*:2]; Phe(3-Cl) = N[C@@H](Cc1cccc(Cl)c1)C(=O)O; Phe(3-F) = N[C@@H](Cc1cccc(F)c1)C(=O)O; Dab(3S-OH) = NC[C@H](O)[C@H](N)C(=O)O; X4 = N=C(N)NCC/C=C(/N[*:1])C(=O)[*:2]; ΔZArg = N=C(N)NCC/C=C(\N)C(=O)O; Gly(cPr) = N[C@H](C(=O)O)C1CC1; hLys = NCCCCC[C@H](N)C(=O)O; dOrn = NCCC[C@@H](N)C(=O)O; Dab = NCC[C@H](N)C(=O)O; NH(CH2)5NH2 = NCCCCCN*; NH(CH2)4NH2 = NCCCCN*
Readout: Ec: MIC Escherichia coli ATCC 25922

Past entries and their recorded results:
Compound	Measured
N=C(N)NCC/C=C(\NC(=O)[C@H](CCCCN)NC(=O)[C@H](Cc1cccc(F)c1)NC(=O)[C@@H]1CCCN1C(=O)[C@@H](CCCN)NC(=O)CNC(=O)[C@@H](NC(=O)[C@@H](NC(=O)[C@@H](N)CCCCN)[C@@H](O)CN)[C@@H](O)CN)C(=O)O [22.36] (H-K[Dab(3S-OH)][Dab(3S-OH)]G[dOrn]P[Phe(3-F)]K[ΔZArg]-OH)	++ (≤8 μg/mL)
COC(=O)/C(=C/CCNC(=N)N)NC(=O)[C@H](CCCCN)NC(=O)[C@H](Cc1cnc[nH]1)NC(=O)[C@@H]1CCCN1C(=O)[C@@H](CCCN)NC(=O)CNC(=O)[C@H](C)NC(=O)[C@@H](NC(=O)[C@@H](N)CCCCN)[C@@H](O)CN [24.160] (H-K[Dab(3S-OH)]AG[dOrn]PHK[ΔZArg]-OMe)	++ (≤8 μg/mL)
N=C(N)NCC/C=C(\NC(=O)[C@H](CCCCN)NC(=O)[C@H](Cc1cnc[nH]1)NC(=O)[C@@H]1CCCN1C(=O)[C@@H](CCCN)NC(=O)CNC(=O)[C@@H](NC(=O)[C@@H](NC(=O)[C@@H](N)CCCCN)[C@@H](O)CN)C1CC1)C(N)=O [213.1] (H-K[Dab(3S-OH)][Gly(cPr)]G[dOrn]PHK[ΔZArg]-NH2)	+ (≤32 μg/mL)
C[C@H](NC(=O)[C@@H](NC(=O)[C@@H](N)CCCCN)[C@@H](O)CN)C(=O)NCC(=O)N[C@H](CCCN)C(=O)N1CCC[C@H]1C(=O)N[C@@H](Cc1cnc[nH]1)C(=O)N[C@@H](CCCCN)C(=O)N[C@H](CCCNC(=N)N)C(=O)O [24.122] (H-K[Dab(3S-OH)]AG[dOrn]PHK[dR]-OH)	− (>32 μg/mL)
C[C@H](NC(=O)[C@@H](NC(=O)[C@@H](N)CCCCN)[C@@H](O)CN)C(=O)NCC(=O)N[C@H](CCCN)C(=O)N1CCC[C@H]1C(=O)N[C@@H](Cc1cnc[nH]1)C(=O)N[C@@H](CCCCN)C(=O)N/C(=C\CCNC(=N)N)C(=O)N[C@@H](CCCCN)C(=O)NCCCCCN [24.6] (H-K[Dab(3S-OH)]AG[dOrn]PHK[ΔZArg]K-{NH(CH2)5NH2})	++ (≤8 μg/mL)

query: Query (compound): C[C@H](NC(=O)[C@@H](NC(=O)[C@@H](N)CCCCN)[C@@H](O)CN)C(=O)NCC(=O)N[C@H](CCCN)C(=O)N1CCC[C@H]1C(=O)N[C@@H](Cc1cnc[nH]1)C(=O)N[C@@H](CCCCN)C(=O)N[C@H](CCCNC(=N)N)C(N)=O [24.68] (H-K[Dab(3S-OH)]AG[dOrn]PHK[dR]-NH2) ; field requested: Ec: MIC Escherichia coli ATCC 25922
result: + (≤32 μg/mL)

query: Item C[C@H](NC(=O)[C@H](CCN)NC(=O)[C@@H](N)CCCCN)C(=O)NCC(=O)N[C@H](CCCN)C(=O)N1CCC[C@H]1C(=O)N[C@@H](Cc1cnc[nH]1)C(=O)N[C@@H](CCCCN)C(=O)N/C(=C/CCNC(=N)N)C(=O)N[C@@H](CCCCN)C(=O)NCCCCN [14.1] (H-K[Dab]AG[dOrn]PHK[X4]K-{NH(CH2)4NH2}) has what recorded Ec: MIC Escherichia coli ATCC 25922?
result: + (≤32 μg/mL)

query: # lookup: Ec: MIC Escherichia coli ATCC 25922 of N=C(N)NCC/C=C(\NC(=O)[C@H](CCCCN)NC(=O)[C@H](Cc1cnc[nH]1)NC(=O)[C@@H]1CCCN1C(=O)[C@@H](CCCN)NC(=O)CNC(=O)CNC(=O)[C@@H](NC(=O)[C@@H](N)CCCCN)[C@@H](O)CN)C(=O)N[C@@H](CCCCN)C(=O)NCCCCN [23.1] (H-K[Dab(3S-OH)]GG[dOrn]PHK[ΔZArg]K-{NH(CH2)4NH2})
result: ++ (≤8 μg/mL)

query: Look up Ec: MIC Escherichia coli ATCC 25922: N=C(N)NCC/C=C(\NC(=O)[C@H](CCCCN)NC(=O)[C@H](Cc1cnc[nH]1)NC(=O)[C@@H]1CCCN1C(=O)[C@@H](CCCN)NC(=O)CNC(=O)[C@@H](NC(=O)[C@@H](NC(=O)[C@@H](N)CCCCN)[C@@H](O)CN)[C@H](CN)OC(=O)C(F)(F)F)C(=O)N[C@@H](CCCCN)C(=O)NCCCCN [224.1] (H-K[Dab(3S-OH)][X3]G[dOrn]PHK[ΔZArg]K-{NH(CH2)4NH2})
result: ++ (≤8 μg/mL)

query: Dear colleague, I am looking for the recorded Ec: MIC Escherichia coli ATCC 25922 of the following compound: C[C@H](NC(=O)[C@@H](NC(=O)[C@@H](N)CCCCN)[C@@H](O)CN)C(=O)NCC(=O)N[C@H](CCCN)C(=O)N1CCC[C@H]1C(=O)N[C@@H](Cc1cnc[nH]1)C(=O)N[C@@H](CCCCCN)C(=O)N[C@H](CCCNC(=N)N)C(N)=O [24.121] (H-K[Dab(3S-OH)]AG[dOrn]PH[hLys][dR]-NH2)
result: − (>32 μg/mL)

query: Quick one: Ec: MIC Escherichia coli ATCC 25922 for CC(C)[C@H](NC(=O)[C@@H](NC(=O)[C@@H](N)CCCCN)[C@@H](O)CN)C(=O)NCC(=O)N[C@H](CCCN)C(=O)N1CCC[C@H]1C(=O)N[C@@H](Cc1cnc[nH]1)C(=O)N[C@@H](CCCCN)C(=O)N/C(=C\CCNC(=N)N)C(=O)N[C@@H](CCCCN)C(=O)NCCCCN [212.1] (H-K[Dab(3S-OH)]VG[dOrn]PHK[ΔZArg]K-{NH(CH2)4NH2}) ?
result: ++ (≤8 μg/mL)

query: State the recorded Ec: MIC Escherichia coli ATCC 25922 for this entry: C[C@H](NC(=O)[C@@H](NC(=O)[C@@H](N)CCCCN)[C@@H](O)CN)C(=O)NCC(=O)N[C@H](CCCN)C(=O)N1CCC[C@H]1C(=O)N[C@@H](Cc1cccc(Cl)c1)C(=O)N[C@@H](CCCCN)C(=O)N/C(=C\CCNC(=N)N)C(=O)O [24.88] (H-K[Dab(3S-OH)]AG[dOrn]P[Phe(3-Cl)]K[ΔZArg]-OH)
result: ++ (≤8 μg/mL)

###

# Test system: Escherichia coli ATCC 25922
# Assay Remarks: MIC, broth microdilution (CLSI), reference strain
# Run Parameters: CAMHB
Square brackets hold non-standard residues; d marks the D form. Peptide text beside a SMILES is read from it. * marks the point of attachment. Phe(3,4-(OMe)2) = COc1ccc(C[C@H](N)C(=O)O)cc1OC; Phe(4-COOH) = N[C@@H](Cc1ccc(C(=O)O)cc1)C(=O)O; Phe(2-Cl) = N[C@@H](Cc1ccccc1Cl)C(=O)O; Dab(3S-OH) = NC[C@H](O)[C@H](N)C(=O)O; ΔZArg = N=C(N)NCC/C=C(\N)C(=O)O; dOrn = NCCC[C@@H](N)C(=O)O; Pip = O=C(O)[C@@H]1CCCCN1; NMeA = CN[C@@H](C)C(=O)O; Dab = NCC[C@H](N)C(=O)O; NH(CH2)4NH2 = NCCCCN*
Readout: Ec: MIC Escherichia coli ATCC 25922

Consider the worked cases shown below.
Molecule	Measured
COc1ccc(C[C@H](NC(=O)[C@@H]2CCCN2C(=O)[C@@H](CCCN)NC(=O)CNC(=O)[C@H](C)NC(=O)[C@@H](NC(=O)[C@@H](N)CCCCN)[C@@H](O)CN)C(=O)N[C@@H](CCCCN)C(=O)N/C(=C\CCNC(=N)N)C(=O)O)cc1OC [24.85] (H-K[Dab(3S-OH)]AG[dOrn]P[Phe(3,4-(OMe)2)]K[ΔZArg]-OH)	++ (≤8 μg/mL)
C[C@H](NC(=O)[C@@H](NC(=O)[C@@H](N)CCCCN)[C@@H](O)CN)C(=O)NCC(=O)N[C@H](CCCN)C(=O)N1CCC[C@H]1C(=O)N[C@@H](Cc1ccccc1Cl)C(=O)N[C@@H](CCCCN)C(=O)N/C(=C\CCNC(=N)N)C(=O)O [24.80] (H-K[Dab(3S-OH)]AG[dOrn]P[Phe(2-Cl)]K[ΔZArg]-OH)	+ (≤32 μg/mL)
C[C@H](NC(=O)[C@@H](NC(=O)[C@@H](N)CCCCN)[C@@H](O)CN)C(=O)NCC(=O)N[C@H](CCCN)C(=O)N(C)[C@@H](C)C(=O)N[C@@H](Cc1cnc[nH]1)C(=O)N[C@@H](CCCCN)C(=O)N/C(=C\CCNC(=N)N)C(=O)O [24.146] (H-K[Dab(3S-OH)]AG[dOrn][NMeA]HK[ΔZArg]-OH)	− (>32 μg/mL)
C[C@H](NC(=O)[C@H](CCN)NC(=O)[C@@H](N)CCCCN)C(=O)NCC(=O)N[C@H](CCCN)C(=O)N1CCCC[C@H]1C(=O)N[C@@H](Cc1cnc[nH]1)C(=O)N[C@@H](CCCCN)C(=O)N/C(=C\CCNC(=N)N)C(=O)N[C@@H](CCCCN)C(=O)NCCCCN [14.13] (H-K[Dab]AG[dOrn][Pip]HK[ΔZArg]K-{NH(CH2)4NH2})	+ (≤32 μg/mL)
C[C@H](NC(=O)[C@@H](NC(=O)[C@@H](N)CCCCN)[C@@H](O)CN)C(=O)NCC(=O)N[C@H](CCCN)C(=O)N1CCC[C@H]1C(=O)N[C@@H](Cc1ccc(C(=O)O)cc1)C(=O)N[C@@H](CCCCN)C(=O)N/C(=C\CCNC(=N)N)C(=O)O [24.161] (H-K[Dab(3S-OH)]AG[dOrn]P[Phe(4-COOH)]K[ΔZArg]-OH)	++ (≤8 μg/mL)

Turning to the following molecule.
query: Suppose we examine the molecule C[C@H](NC(=O)[C@@H](NC(=O)[C@@H](N)CCCCN)[C@@H](O)CN)C(=O)NCC(=O)N[C@H](CCCN)C(=O)N1CCC[C@H]1C(=O)N[C@@H](CCC(=O)O)C(=O)N[C@@H](CCCCN)C(=O)N/C(=C\CCNC(=N)N)C(=O)N[C@@H](CCCCN)C(=O)NCCCCN [24.118] (H-K[Dab(3S-OH)]AG[dOrn]PEK[ΔZArg]K-{NH(CH2)4NH2}) ; what Ec: MIC Escherichia coli ATCC 25922 value has been reported?
result: − (>32 μg/mL)
